- system: T1, Recombinant soluble E protein (0.8E-His) from DENV-3 (DENV-3, UniProt P27915 281-673)
- T1 construct: also called DENV-3 E protein; DV3
measurement-type: log10 of Kd (log10 of the value in pM)
Reminder: these figures are log10 of reported Kd, in pM before transformation.

Input: Any idea what log10 of Kd was measured for DG_3CH953-SG182/3CL668-SK1 (antibody, V domains shown) VH: QVQLVQSGPDVEKPGASVKVSCKASGYTFTSNYIHWVRQAPGQGLEWMGVINPRGGSRRSAQKFQGRITMTRDTSTSTVYMELSSLRSEDTAVYYCARGGRALFYDSYTTPFDGGSWWFDPWGQGSLVTVSS VL: DIQLTQSPSSLSASVGDRVTITCQASQDIRKYLNWYQQKPGKAPKLLIYDASNLKTGVPSRFSGSGSGTDFTLTISSLQPEDVATYYCQQFEDLPITFGQGTRLQIKR ?
Output: 0.37

Input: Same again, this time with DG_3CH1046-SG182/3CL668-SK1 (antibody, V domains shown) VH: QVQLVQSGAEVKKPGASVKVSCKASGYTFTSYYMHWVRQAPGQGLEWMGVINPRGGSRRSAQKFQGRVTMTRDTSTSTVYMELSSLRSEDTAVYYCARGGRALFYDSYTTPFDGGSWWFDPWGQGSLVTVSS VL: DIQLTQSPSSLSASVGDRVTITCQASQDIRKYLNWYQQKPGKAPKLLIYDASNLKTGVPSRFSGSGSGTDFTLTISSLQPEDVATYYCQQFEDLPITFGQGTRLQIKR
Output: -0.25

Input: // next record DG_3CH987-SG182/3CL119-SK1 (antibody, V domains shown) VH: QVQLVQSGPDVEKPGASVKVSCKASGYTFTSYYIHWVRQAPGQGLEWMGVINPRGGSRRSAQKFQGRITMTRDTSTSTVYMELSSLRSEDTAVYYCARGGRALFYDSYTTPFDGGSWWFDPWGQGSLVTVSS VL: DIQLTQSPSSLSASVGDRVTFTCQASQEIRKYLNWYQQKPGKAPKLLIYDASNLKTGVPSRFSGSGSGTDFTFTISSLQPEDVATYYCQQFDDLPITFGQGTRLQIKR
Output: -0.15

Input: Again, but for DG_3CH987-SG182/3CL012-SK1 (antibody, V domains shown) VH: QVQLVQSGPDVEKPGASVKVSCKASGYTFTSYYIHWVRQAPGQGLEWMGVINPRGGSRRSAQKFQGRITMTRDTSTSTVYMELSSLRSEDTAVYYCARGGRALFYDSYTTPFDGGSWWFDPWGQGSLVTVSS VL: DIQLTQSPSSLSASVGDRVTFTCQASQDIRKYLNWYQQKPGKAPKLLIYDASNLKTGVPSRFSGSGSGTDFTFTISSLQPEDVATYYCQQFEDLPITFGQGTRLQIKR
Output: 0.43

Input: Then what about the binder DG_3CH989-SG182/3CL012-SK1 (antibody, V domains shown) VH: QVQLVQSGAEVKKPGASVKVSCKASGYTFTSNYIHWVRQAPGQGLEWMGVINPRGGSRRSAQKFQGRVTMTRDTSTSTVYMELSSLRSEDTAVYYCARGGRALFYDSYTTPFDGGSWWFDPWGQGSLVTVSS VL: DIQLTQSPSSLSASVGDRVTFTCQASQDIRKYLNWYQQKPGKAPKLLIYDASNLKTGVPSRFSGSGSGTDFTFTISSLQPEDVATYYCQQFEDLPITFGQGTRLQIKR ?
Output: -1.01

This collection of values is drawn from patent US20190218277A1.
